Where these numbers come from: PubChem BioAssay (EPA / NIEHS)

# Protocol description: ATG_CRE_CIS: Attagene CIS-FACTORIAL HepG2 Assay for human cAMP Responsive Element (CRE) binding protein 3 (AID 2282926)
# Assay conditions: HepG2 CRE cis-reporter, Attagene multiplexed mRNA; actives raise or lower the signal
Activity calls are given as the source filed them. The calls were made as follows: active = hit-call score of the fitted dose curve at least 0.9, where 1 is the maximum; inactive = score below 0.9.
Parameter call: string, one of t for active, f for inactive

Molecule: COC(=O)CCC(=O)OC
Class label: f

Molecule: CCC(C)N(C)C(=O)c1cc2ccccc2c(-c2ccccc2Cl)n1 (configuration not stated)
Class label: f

Molecule: Cc1occc(=O)c1O
Class label: f

Molecule: CN(C)CCCN1c2ccccc2Sc2ccc(Cl)cc21
Class label: f

Molecule: CCCCCCCCCCCCCCCCO
Class label: f

Please share the test call associated with CSc1ccc(Oc2ccc(S(N)(=O)=O)cc2CN(C)C)cc1C .
f

What is the recorded call for this molecule in the test? C/C=C/C=C/C(=O)O
f

Dear colleague, could you share the recorded outcome for S=c1[nH]c2ccccc2s1 when you have a moment?
f

// outcome(item) with item = CC(=O)O
f

What was the test verdict on CC1(C)C(=O)NC(=O)N1CO ?
f

What outcome does the record of this test show for CCCC(=O)O ?
t

Any idea what this test logged for CC(C)(C)c1ccccc1 ?
f

Just curious, what result did C/C=C/c1ccc(OC)cc1 get here?
f

----------
# Protocol description: CCTE_Padilla_ZF_144hpf_TERATOSCORE: (Legacy) CCTE's 144 Hour Post-fertilization zebrafish Assay Teratoscore, Padilla Lab (AID 2283679);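 as to AC50: zebrafish embryos with chorions exposed by immersion from 6-8 hpf to 5 dpf with daily renewal; teratogenicity score from eye scoring of death hatching and malformations at 144 hpf; higher score means more developmental defects relative to DMSO baseline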
Active and inactive are the calls of the source. Rule for the calls: active = hit-call score of the fitted dose curve at least 0.9, where 1 is the maximum; inactive = score below 0.9.
Parameter measured: AC50

Compound: Cc1cc(SC2=C(O)C[C@@](CCc3ccc(N)cc3)(C(C)C)OC2=O)c(C(C)(C)C)cc1CO
AC50: 16.4 µM (active)
--
Compound: CCc1nc(N)nc(N)c1-c1ccc(Cl)cc1
AC50: 64.5 µM (active)
--
Compound: C=CCCCCCCCCCCCC
AC50: inactive
--
Compound: CCN(CC)CCOc1ccc(C(=C(Cl)c2ccccc2)c2ccccc2)cc1
AC50: 1.56 µM (active)
--
Compound: CCc1cc(C2=C(C(=O)O)N(c3ccccc3C(F)(F)F)S(=O)(=O)c3ccccc32)cc2c1OCO2
AC50: inactive
--
Compound: CC(=O)[C@@]1(O)CC[C@H]2[C@@H]3CCC4=CC(=O)CC[C@]4(C)[C@H]3CC[C@@]21C
AC50: 36.1 µM (active)
--
Compound: O=[Si]=O
AC50: inactive
--
Compound: COc1ccc(OC(F)(F)F)cc1CN[C@H]1CCCN[C@H]1c1ccccc1
AC50: 56.5 µM (active)
--
Compound: COC(=O)CCCC(=O)OC
AC50: 62.7 µM (active)
--
Compound: CC(C)OC(=O)C(C)(C)Oc1ccc(C(=O)c2ccc(Cl)cc2)cc1
AC50: 1.78 µM (active)

Kindly give each listed record's AC50.
1. NC=O
2. CCCCc1nc2cccnc2n1Cc1ccc(-c2ccccc2-c2nnn[nH]2)cc1
3. CC(=O)O[C@]1(C(C)=O)CC[C@H]2[C@@H]3C=C(Cl)C4=CC(=O)[C@@H]5C[C@@H]5[C@]4(C)[C@H]3CC[C@@]21C
4. Oc1ccc(O)cc1

1: inactive; 2: inactive; 3: 15.2 µM (active); 4: 15.6 µM (active)
